Values from patent US6696484B2

Please go through the items and note down their inhibition at 100 µM.
Target: UniProt:P31213
Sequence (P31213 whole entry): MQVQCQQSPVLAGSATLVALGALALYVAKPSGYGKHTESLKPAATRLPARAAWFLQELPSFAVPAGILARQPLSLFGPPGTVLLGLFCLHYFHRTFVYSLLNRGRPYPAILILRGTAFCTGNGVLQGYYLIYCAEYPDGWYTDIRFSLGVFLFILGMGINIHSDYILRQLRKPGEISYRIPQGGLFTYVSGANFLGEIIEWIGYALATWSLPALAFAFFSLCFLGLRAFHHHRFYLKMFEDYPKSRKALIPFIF
Experiment: Cell-free enzymatic assay of 5α-reductase (testosterone to DHT), type 2
Assay type: biochemical
Set-up: expressed in transfected cells; host or cells: rat 1A cells infected with pMV7 retrovirus and selected with G418; microsomes for the cell-free assay
Details: read-out: percent inhibition of 5α-reductase activity, cell-free assay, Type 2, 100 μM compound
Response body: numeric value in %, unit text excluded.

// inhibition at 100 µM lookup, key: O=C1c2ccccc2C(=O)c2c(O)c(O)cc(O)c21 [Purpurin]
20

Look up inhibition at 100 µM for this molecule: COc1cc2ccc(=O)oc2c(O)c1O [Fraxetin, 7,8-dihydroxy-6-methoxycoumarin]
8

Requested read-out: inhibition at 100 µM. Entry: O=C(/C=C/c1ccc(O)c(O)c1)OCCc1ccccc1 [Caffeic acid phenethyl ester]
36

What inhibition at 100 µM value was documented for this molecule, C[C@@H]1O[C@@H](OC[C@H]2O[C@@H](Oc3c(-c4ccc(O)c(O)c4)oc4cc(O)cc(O)c4c3=O)[C@H](O)[C@@H](O)[C@@H]2O)[C@H](O)[C@H](O)[C@H]1O [Rutin] ?
0
